Inhibition of binding (%) values for the binders below.
Target: T1, thyroid stimulating hormone receptor (full length human TSHR) (human, UniProt P16473 22-764)
T1 construct: Full length TSHR coated onto plastic tubes (TSHR coated tubes, as in WO2004/050708A2); also called TSH receptor
Test: competitor ^125I-K1-70 IgG, TSHR coated tubes; 0.003 µg/mL in HBD
# do not omit the unit; it follows the number

K1-70 IgG (antibody, V domains shown, Human IgG1 lambda purified from hetero-hybridoma supernatant) VH: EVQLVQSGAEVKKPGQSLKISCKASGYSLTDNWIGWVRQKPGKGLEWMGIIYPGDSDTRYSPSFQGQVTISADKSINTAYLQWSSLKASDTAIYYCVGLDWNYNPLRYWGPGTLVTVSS VL: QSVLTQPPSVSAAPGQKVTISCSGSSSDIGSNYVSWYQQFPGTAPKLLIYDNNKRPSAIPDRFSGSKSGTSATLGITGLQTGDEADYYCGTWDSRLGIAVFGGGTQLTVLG; 2.2%
K1-18 Fab (Fab, V domains shown) VH: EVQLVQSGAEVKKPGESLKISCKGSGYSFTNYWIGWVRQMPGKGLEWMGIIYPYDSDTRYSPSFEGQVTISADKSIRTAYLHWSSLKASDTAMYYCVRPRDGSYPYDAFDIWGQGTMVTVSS VL: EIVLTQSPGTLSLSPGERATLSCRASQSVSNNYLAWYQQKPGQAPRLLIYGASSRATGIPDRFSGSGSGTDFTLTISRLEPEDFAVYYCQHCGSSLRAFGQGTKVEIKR; -3.5%
K1-18 IgG (antibody, V domains shown, Human IgG1 kappa purified from hetero-hybridoma supernatant; it is not part of the secreted protein; also called human monoclonal TSHR autoantibody K1-18 (stimulating)) VH: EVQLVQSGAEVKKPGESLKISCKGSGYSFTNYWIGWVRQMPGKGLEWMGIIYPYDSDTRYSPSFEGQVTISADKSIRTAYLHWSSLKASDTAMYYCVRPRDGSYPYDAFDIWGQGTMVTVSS VL: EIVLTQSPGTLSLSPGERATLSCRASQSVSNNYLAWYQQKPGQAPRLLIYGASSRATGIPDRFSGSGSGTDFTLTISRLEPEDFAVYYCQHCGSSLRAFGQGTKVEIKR; -2.7%

Kindly consider the entry below.
Can you share its Inhibition of binding (%)? I mean this binder: K1-70 Fab (Fab, V domains shown) VH: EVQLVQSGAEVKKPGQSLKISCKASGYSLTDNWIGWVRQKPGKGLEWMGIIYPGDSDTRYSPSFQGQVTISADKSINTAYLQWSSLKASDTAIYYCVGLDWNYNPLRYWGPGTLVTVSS VL: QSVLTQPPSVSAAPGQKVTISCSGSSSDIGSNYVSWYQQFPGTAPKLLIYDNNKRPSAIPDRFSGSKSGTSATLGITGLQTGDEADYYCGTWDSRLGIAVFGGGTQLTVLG
5.6%
